test: Phase 1 pharmacokinetics in healthy human volunteers; assay type: in vivo; details: human, blood, intravenous, 1.2 g PFC/kg, Table VIII; 1.2 g PFC/kg; read-out: AUC (0-336)
measured.metric: AUC(0-t) (µg·h/mL)
Dear colleague, please return just the value in µg·h/mL, with no unit written.

# compound, measured.metric, measured.value
measured = [
    ("FC(F)(F)C(F)(F)C(F)(F)C(F)(F)C(F)(F)C(F)(F)C(F)(F)C(F)(F)Br [PFOB, perfluorooctyl bromide]", "AUC(0-t)", 79200),
]

Would you kindly look at the next entry?
Input line: Requested field: AUC(0-t). Item: FC(F)(F)C(F)(F)C(F)(F)C(F)(F)C(F)(F)C(F)(F)C(F)(F)C(F)(F)C(F)(F)C(F)(F)Br [PFDB, perfluorodecyl bromide]
Output line: 4630
